Data credit: PubChem BioAssay (NCI)

Give growth for every item shown.
tested on: SK-MEL-2 melanoma; test: NCI-60 one-dose screen, 48 h (100 = growth as untreated, 0 = no growth, -100 = all killed); conditions: 10 µM unless noted
Compounds without any hit were thinned out: in the full panel of roughly 83,000, 20% have a hit. Calls of active or inactive are those of the source. Rule for the calls: active = growth percent below 10; inactive = the rest.

Some molecules with recorded growth:
Molecule	Experimental result
COc1cc(C2CC(=O)c3ccccc3N2)cc(OC)c1OC (stereo not drawn)	74.3% (inactive)
CCCc1cc(=O)n2c(C(=O)Nc3ccc(F)cc3)c(C(=O)Nc3ccc(F)cc3)sc2n1	70.7% [30 µM] (inactive)
Cc1ccccc1COc1ccc(-c2onc(C)c2-c2ccc(Cl)cc2)cc1	37.1% (inactive)
COc1ccc(-c2nnc(SCC(=O)c3ccc(Cl)cc3)o2)cc1	104% (inactive)
Cc1ccc(OC(=O)c2ccc(Cl)cc2)cc1	103% (inactive)

Each of the following entries comes with a recorded value; kindly state growth for each.
1. CC[C@@H]1O[C@H](O[C@@H](c2cnc[nH]2)[C@H](NC(=O)c2nc([C@H](CC(N)=O)NC[C@@H](N)C(N)=O)nc(N)c2C)C(=O)N[C@H](C)[C@H](O)[C@H](C)C(=O)N[C@@H](C(=O)NCCc2nc(-c3nc(C(=O)NCCCCN=C(N)N)cs3)cs2)[C@@H](C)O)[C@H](O[C@@H]2O[C@H](CO)[C@H](O)[C@H](OC(N)=O)[C@@H]2O)[C@H](C)[C@@H]1C
2. C=C(C)C(=O)Nc1ccc(NC(C)C)cc1
3. CCN1CCC2(CC1)NC(=O)c1c(c3ccc(Cl)c(Cl)c3n1C)C2C#N (stereo not drawn)

1: 101% (inactive); 2: 53.5% (inactive); 3: 21.4% (inactive)

====

tested on: SK-MEL-28 melanoma; assay: NCI-60 one-dose screen, 48 h; conditions: 10 µM unless noted
The panel holds about 83,000 compounds, 20% with a hit somewhere; the sample as a whole holds those more often. Activity calls are given as the source filed them. The calls were made as follows: active = growth percent below 10; inactive = the rest.
Assign a class; possible classes are YES (active), NO (inactive)

> print(dat)
                                   compound  group.label
1  C=CC(=O)Nc1cccc(Nc2nc(SC)nc(-c3cccc([N+](=O)[O-])c3)c2C#N)c1           NO

For Cc1cc2nc(NC(=O)CN3CCN(CCN4C(=O)c5cccc6cccc(c56)C4=O)CC3)sc2cc1C , what call appears in the results of this test?
NO

Recorded test call requested for Cc1cc(N2CCSCC2)nc(NC2CCCC(Nc3ccnc4cc(Cl)ccc34)C2)n1 (configuration not stated)
YES

# fetch the recorded call for COc1ccc(-c2nc3ccc(-c4nc5ccc(N6CCN(c7ccc(F)cc7)CC6)cc5[nH]4)cc3[nH]2)cc1OC here
NO

Fill in: this test's call for COc1cccc(-c2nn(C(C)(C)C)cc2-c2ccnc(NCCCNS(=O)(=O)c3cccc4ccccc34)c2)c1 is ___
NO

Dear all, I need the recorded test outcome for CCN(CC)c1ccc(/C=N\NC(=O)/C=C/C=C/c2ccc3c(c2)OCO3)c(O)c1 , thank you.
NO

// return assay outcome for C=C(C)[C@@H]1CC[C@]2(C(=O)OC)CC[C@]3(C)[C@H](CC[C@@H]4[C@@]5(C)C/C(=C/c6ccc(OC)cc6)C(=O)C(C)(C)[C@@H]5CC[C@]43C)[C@@H]12
NO

# fetch the recorded call for O=C(Cc1ccc(/C=C/C(=O)c2ncc[nH]2)cc1)Nc1ccc(F)cc1 here
NO

Given N#CN1CCC[C@H]1C(=O)N1CCc2c(-c3[nH]nc4ncccc34)cccc21 , state the outcome it received in this test.
NO

====

test system: NCI-H460 lung; assay: NCI-60 one-dose screen, 48 h (100 = growth as untreated, 0 = no growth, -100 = all killed); settings: 10 µM unless noted
Compounds without any hit were thinned out: in the full panel of roughly 83,000, 20% have a hit.
Value type: growth (%)
Answers are plain numbers, in %.

Study these solved cases before continuing.
> print(dat)
                                   compound  unit.of.measure  experimental.result
1  N=C(N)c1ccc(-c2ccc(-c3ccc4ccccc4c3)s2)s1                %                -70.4
2  CC(=O)c1cc(C(=O)c2ccc3c(c2)Sc2ccccc2N3)n2ccccc12                %                 2.97
3  COc1ccc(/C=C\c2cc(OC)c(OC)c(OC)c2)cc1OC(=O)c1cccc(Cn2cc(CCOC(=O)[C@H](N)Cc3cn(C)c4ccccc34)nn2)c1                %                 1.11
4  NNCCc1ccc(NC(=O)CCCc2ccc(/C=C/C(=O)NO)cc2)cc1                %                 62.8
5  COc1ccc(/C=C2\Oc3cc(OCCCCN4CCCC4)ccc3C2=O)cc1                %                 1.37
6  COc1cc2c(cc1-c1c(C)noc1C)ncc1nc(C3CCCCC3)n([C@H](C)COC(F)F)c12                %                 53.2

Hey, quick one: what's growth for each of these?
1. CCN1CCN(c2nc(NCCCNc3ccnc4cc(Cl)ccc34)c3ccccc3n2)CC1
2. Cc1cc(N2CCCCCC2)nc(NC2CCCC(Nc3ccnc4cc(Cl)ccc34)C2)n1 (centres undefined)

1. 16.3
2. -82.2

Under NCI-H460 lung: report growth of O=C1c2ccccc2OC=C(c2ccccc2)N1CCCCNc1ccc(S(=O)(=O)Nc2ncccn2)cc1 .
103

====

tested on: RXF 393 renal; test: NCI-60 one-dose screen, 48 h; details: 10 µM unless noted
This is part of a sample that, as a whole, favours compounds with a hit. Of some 83,000 tested, about 20% had one in any assay. The source made the active and inactive calls. The calls were made as follows: active = growth percent below 10; inactive = the rest.
The reply should name one outcome from label 1 for active, label 0 for inactive

Recorded results for 3 compounds are shown here.
> print(dat)
                            chemical.string  group.label
1  COc1ccc2nc(NC(=O)CSc3nnc4n3S(=O)(=O)c3ccccc3N4c3ccccc3)sc2c1      label 0
2  Clc1ccc2c(NCCNc3nc(N4CCOCC4)nc4ccccc34)ccnc2c1      label 1
3  Cc1cc(N2CCN(c3ccnc4cc(Cl)ccc34)CC2)nc(NC2CCCCC2)n1      label 0

Please share the test call associated with C#Cc1cccc(NC(=O)c2ccccc2NC(=O)C=C)c1 .
label 0

Please state the recorded outcome for this compound: O=C1NC(=S)NC(=O)C1CC(=O)n1c(-c2ccccc2)nc2ccccc21
label 0

Call for entry C=C(C)[C@@H]1CC[C@]2(C(=O)OC)CC[C@]3(C)[C@H](CC[C@@H]4[C@@]5(C)C/C(=C/c6ccc(OC)cc6)C(=O)C(C)(C)[C@@H]5CC[C@]43C)[C@@H]12 :
label 0

Test call for this compound, please: COc1cccc(Nc2nc(SC)nc(-c3cccc([N+](=O)[O-])c3)c2C#N)c1
label 0

Please share the test call associated with Cn1cccc1-c1nc2c3c(ccc2[nH]1)C(=O)c1ccccc1C3=O .
label 0

Tell me the recorded outcome of this test for COc1ccc(C(=O)c2sc3nc(C)cc(C)c3c2N)cc1OC .
label 0

====

tested on: EKVX NSCLC; assay: NCI-60 one-dose screen, 48 h (100 = growth as untreated, 0 = no growth, -100 = all killed); details: 10 µM unless noted
This is part of a sample that, as a whole, favours compounds with a hit. Of some 83,000 tested, about 20% had one in any assay.
Would you mind sorting the entries by growth according to these classes? bottom range = under 40%, center range = from 40% up to 70%, top range = 70% and over

> print(dat)
                                   compound  tested.system   group.label
1  COc1cccc(-c2nc3sccn3c2-c2ccnc(NCCCNS(=O)(=O)c3c(Cl)cccc3Cl)c2)c1     EKVX NSCLC  center range
2  O=S(=O)(Nc1ccc(Br)c(Cl)c1)c1ccc(-c2cnc(C3CC3)o2)cc1     EKVX NSCLC  bottom range
3  COc1ccc2c(c1)O/C(=C\c1cccc(OCC(=O)Nc3nc4c(s3)CCCC4)c1)C2=O     EKVX NSCLC     top range
4  Cc1cn2c(/C=C3/C(=O)Nc4c3ccc3ccccc43)c(C(F)(F)F)nc2s1     EKVX NSCLC  center range
5  Cn1nc(N)c2cc([C@@H]3Nc4ccc5[nH]ncc5c4[C@H]4C5CCC(C5)[C@@H]34)ccc21 (some centres undefined)     EKVX NSCLC  center range
6  CCNC(=O)Oc1ccc(/C(=C(\C)c2ccc(Cl)cc2)c2ccc(OCCN3CCCCC3)cc2)cc1     EKVX NSCLC  center range
7  CN(C)c1ccc(NC(=O)c2ccc(/C=C/C(=O)c3ncc[nH]3)cc2)cc1     EKVX NSCLC     top range

Now consider a different compound.
Where would CC(=O)c1nc2ccccc2n1CC(=O)c1cccc(Cl)c1 land among the classes by reported growth?
bottom range
